Biological target: Aminopeptidase N (Sus scrofa, UniProt P15145)
Sequence (P15145 whole entry): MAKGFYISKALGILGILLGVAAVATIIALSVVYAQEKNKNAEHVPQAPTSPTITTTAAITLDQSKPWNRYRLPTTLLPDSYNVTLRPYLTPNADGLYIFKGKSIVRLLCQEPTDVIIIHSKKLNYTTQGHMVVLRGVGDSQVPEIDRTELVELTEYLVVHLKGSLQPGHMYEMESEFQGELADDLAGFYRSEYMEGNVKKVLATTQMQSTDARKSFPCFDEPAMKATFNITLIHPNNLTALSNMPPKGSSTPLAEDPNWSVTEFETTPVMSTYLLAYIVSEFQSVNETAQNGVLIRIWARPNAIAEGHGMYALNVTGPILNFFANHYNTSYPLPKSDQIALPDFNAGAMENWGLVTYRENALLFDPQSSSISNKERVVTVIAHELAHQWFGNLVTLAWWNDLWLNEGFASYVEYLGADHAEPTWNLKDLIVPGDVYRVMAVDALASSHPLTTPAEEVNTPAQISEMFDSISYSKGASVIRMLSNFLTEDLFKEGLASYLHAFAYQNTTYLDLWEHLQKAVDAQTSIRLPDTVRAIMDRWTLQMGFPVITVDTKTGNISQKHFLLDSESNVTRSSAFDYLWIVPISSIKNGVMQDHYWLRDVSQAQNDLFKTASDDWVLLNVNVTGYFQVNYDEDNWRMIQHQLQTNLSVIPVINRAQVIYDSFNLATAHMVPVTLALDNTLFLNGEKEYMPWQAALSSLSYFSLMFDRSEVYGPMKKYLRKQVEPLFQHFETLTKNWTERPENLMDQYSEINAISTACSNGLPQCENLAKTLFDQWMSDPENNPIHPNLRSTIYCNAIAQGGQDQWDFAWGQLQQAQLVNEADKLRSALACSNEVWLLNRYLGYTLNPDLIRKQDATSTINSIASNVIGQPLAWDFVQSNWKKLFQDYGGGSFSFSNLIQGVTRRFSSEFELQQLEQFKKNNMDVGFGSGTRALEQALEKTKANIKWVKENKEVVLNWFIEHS
Measured log10(IC50) values are reported for all entries that follow.
Transform log10 | Measure IC50 | Unit µM

Record excerpt, results attached:
Smiles text: CSCC[C@H](N)C(=O)NC[C@H](N)Cc1ccccc1
log10(IC50): 2.08
//
Smiles text: CC(C)C[C@H](N)C(=O)NC[C@H](N)Cc1ccccc1
log10(IC50): 2.15
//
Smiles text: N[C@@H](CNC(=O)/C=C/c1ccccc1)Cc1ccccc1
log10(IC50): 2.78
//
Smiles text: N[C@@H](CNC(=O)[C@@H](N)CS)Cc1ccccc1
log10(IC50): 1.32

With those in mind, consider the next compound.
Query log10(IC50) for NCCCC[C@H](N)C(=O)NC[C@H](N)Cc1ccccc1
2.21

====

Measured pIC50 values are reported for all entries that follow.
Molecular target: 72 kDa type IV collagenase (Homo sapiens, UniProt P08253)
Sequence (P08253 whole entry): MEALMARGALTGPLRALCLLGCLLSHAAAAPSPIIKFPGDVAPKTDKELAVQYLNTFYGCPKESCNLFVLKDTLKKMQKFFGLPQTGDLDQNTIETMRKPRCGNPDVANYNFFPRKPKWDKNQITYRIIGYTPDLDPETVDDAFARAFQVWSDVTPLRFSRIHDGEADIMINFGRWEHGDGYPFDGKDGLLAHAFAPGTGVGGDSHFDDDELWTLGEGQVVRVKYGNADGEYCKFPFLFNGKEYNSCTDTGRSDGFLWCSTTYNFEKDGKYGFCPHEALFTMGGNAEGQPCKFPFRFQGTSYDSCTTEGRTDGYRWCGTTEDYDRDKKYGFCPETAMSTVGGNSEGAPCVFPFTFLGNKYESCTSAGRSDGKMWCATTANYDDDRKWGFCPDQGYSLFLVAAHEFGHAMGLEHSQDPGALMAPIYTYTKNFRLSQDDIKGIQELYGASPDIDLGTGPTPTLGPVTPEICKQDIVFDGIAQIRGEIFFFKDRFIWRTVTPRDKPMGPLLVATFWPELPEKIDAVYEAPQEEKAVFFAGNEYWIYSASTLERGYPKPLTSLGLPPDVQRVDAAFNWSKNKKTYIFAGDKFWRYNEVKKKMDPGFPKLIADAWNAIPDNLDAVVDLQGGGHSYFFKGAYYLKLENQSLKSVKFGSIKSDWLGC
pIC50 is a log-scale quantity: -log10 of the concentration expressed in molar.

Smiles text: NCCCC[C@H](N)C(=O)NC[C@H](N)Cc1ccccc1
pIC50: 4.00
//
Smiles text: N[C@@H](CNC(=O)c1cc([N+](=O)[O-])cc([N+](=O)[O-])c1)Cc1ccccc1
pIC50: 4.00

Give pIC50 for NCCCCCC(=O)NC[C@H](N)Cc1ccccc1 tested on 72 kDa type IV collagenase (Homo sapiens, UniProt P08253).
4.00
